target: full-length beta-Catenin (Uniprot ID P35222) (Homo sapiens (Human)) (UniProt P35222); assay: fluorescence polarization competition; full-length beta-catenin + 5FAM-TCF4(10-53) probe as competitor
Sequence (P35222 2-781 limits assumed): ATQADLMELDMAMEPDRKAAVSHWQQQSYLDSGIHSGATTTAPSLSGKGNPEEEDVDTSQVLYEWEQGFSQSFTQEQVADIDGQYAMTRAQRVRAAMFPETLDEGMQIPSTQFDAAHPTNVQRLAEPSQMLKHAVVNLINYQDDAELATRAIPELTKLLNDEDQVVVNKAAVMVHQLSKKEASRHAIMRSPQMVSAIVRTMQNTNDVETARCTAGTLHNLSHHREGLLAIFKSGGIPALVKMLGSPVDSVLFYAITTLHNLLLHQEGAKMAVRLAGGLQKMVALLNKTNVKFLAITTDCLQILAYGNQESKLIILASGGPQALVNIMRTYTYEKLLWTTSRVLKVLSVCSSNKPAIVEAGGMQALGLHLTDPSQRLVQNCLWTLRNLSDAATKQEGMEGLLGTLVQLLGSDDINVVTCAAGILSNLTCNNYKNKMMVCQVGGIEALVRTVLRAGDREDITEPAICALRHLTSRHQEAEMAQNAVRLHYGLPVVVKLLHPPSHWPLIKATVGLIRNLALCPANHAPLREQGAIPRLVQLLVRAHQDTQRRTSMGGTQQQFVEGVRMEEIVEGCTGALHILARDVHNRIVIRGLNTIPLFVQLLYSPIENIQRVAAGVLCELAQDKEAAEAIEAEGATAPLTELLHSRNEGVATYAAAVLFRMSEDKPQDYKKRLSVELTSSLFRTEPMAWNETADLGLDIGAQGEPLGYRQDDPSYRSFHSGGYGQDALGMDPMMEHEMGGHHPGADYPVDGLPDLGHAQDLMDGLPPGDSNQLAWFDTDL
pEC50: −log10 of the molar value. Starred links: 1 amine or outer side, 2 acyl side, 3 side chain; linkers in the order of their positions; H or OH if unused. Positions of bridges follow the written chain, without caps; N, C: chain ends. Non-standard residues stand in square brackets, D forms with d. Primed or numbered codes have the meaning given here. PyrS2″ = (S)-3-amino-1-((pent-4-en-1-yloxy)carbonyl)pyrrolidine-3-carboxylic acid (stapling residue), C=CCCCOC(=O)N1CC[C@@](N[*:1])(C(=O)[*:2])C1; B5(4) = 2,2-bis(4-pentenyl)glycine = 2-amino-2-(pent-4-en-1-yl)hept-6-enoic acid (stitching residue), C=CCCCC(CCCC=C)(N[*:1])C(=O)[*:2]; B5(5) = 2,2-bis(4-pentenyl)glycine, 2-amino-2-(pent-4-en-1-yl)hept-6-enoic acid (stitching residue), C=CCCCC(CCCC=C)(N[*:1])C(=O)[*:2]; Phe(2-Cl) = N[C@@H](Cc1ccccc1Cl)C(=O)O; Phe(2-F) = N[C@@H](Cc1ccccc1F)C(=O)O; Bta = N[C@@H](Cc1csc2ccccc12)C(=O)O; αAllylPro = C=CC[C@@]1(C(=O)O)CCCN1; tBuAla = CC(C)(C)C[C@H](N)C(=O)O; Cha = N[C@@H](CC1CCCCC1)C(=O)O; S8 = C=CCCCCCC[C@](C)(N)C(=O)O
Observation type: pEC50

Take a look at these entries with their results.
Ac-[αAllylPro]D[tBuAla][B5(4)]DDAAFT[S8][Phe(2-Cl)][Bta]T-NH2 (staple 1-4, 4-11) [I-1090] ... 7.74
Ac-[αAllylPro]D[tBuAla][B5(5)]DDAAFS[PyrS2″][Phe(2-F)][Bta]S-NH2 (staple 1-4, 4-11) [I-1101] ... 7.85
Ac-[αAllylPro]D[tBuAla][B5(5)]DDAA[Cha]S[PyrS2″]F[Bta]S-NH2 (staple 1-4, 4-11) [I-1105] ... 7.44

[I] Ac-[αAllylPro]D[tBuAla][B5(4)]DEAAFT[S8][Phe(2-Cl)][Bta][dT]-NH2 (staple 1-4, 4-11; also: earlier-eluting isomer composition) [I-1093]
[II] Ac-[αAllylPro]D[tBuAla][B5(4)]DDAAFT[S8][Phe(2-Cl)][Bta]Q-NH2 (staple 1-4, 4-11; also: earlier-eluting HPLC peak staple isomer composition) [I-1086]
input: Which of the two items, I and II , has the greater recorded pEC50? Pick one and reply with its label.
output: II
(II: 7.92, I: 7.37)
